Please go through the items and note down their half-life.
Assay: Pharmacokinetic (PK) study in ICR mice, IV and PO
Details: ICR, mouse, plasma, iv, 2 mg/kg
One number for each entry, in h.

Use these answered entries as a reference point.
COc1cc2sc(C(=O)CCC(=O)O)cc2c2nc(C)oc12    1.11
COc1cc2sc(C(=O)CCC(=O)O)cc2c2ncoc12    0.658
CC[C@@H](CC(=O)c1cc2c(cc(OC)c3ocnc32)s1)C(=O)O    4.36
COc1cc2sc(C(=O)C[C@H](C)C(=O)O)cc2c2c(F)c(C)oc12    2.35
COc1cc2cc(C(=O)CCC(=O)O)sc2cc1OC [MAS-2, reference compound]    0.431
COc1cc2sc(C(=O)C[C@H](C)C(=O)O)cc2c2cc(C)oc12    0.821

Consider now this further compound.
Exam item: Output half-life of COc1cc2sc(C(=O)C[C@H](C)C(=O)O)cc2c2cc(F)oc12
Marked response: 2.68
